- tested target: T1, recombinant human IL-12 (rhIL-12) (human, UniProt P29459 23-219; P29460 23-328)
- T1 sequence (looked up) 1: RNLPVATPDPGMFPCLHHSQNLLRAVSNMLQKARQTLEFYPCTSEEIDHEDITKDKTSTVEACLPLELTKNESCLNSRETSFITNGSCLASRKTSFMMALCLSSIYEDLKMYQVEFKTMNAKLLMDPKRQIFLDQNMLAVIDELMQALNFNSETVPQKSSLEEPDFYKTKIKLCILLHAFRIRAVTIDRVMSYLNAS
- T1 sequence (looked up) 2: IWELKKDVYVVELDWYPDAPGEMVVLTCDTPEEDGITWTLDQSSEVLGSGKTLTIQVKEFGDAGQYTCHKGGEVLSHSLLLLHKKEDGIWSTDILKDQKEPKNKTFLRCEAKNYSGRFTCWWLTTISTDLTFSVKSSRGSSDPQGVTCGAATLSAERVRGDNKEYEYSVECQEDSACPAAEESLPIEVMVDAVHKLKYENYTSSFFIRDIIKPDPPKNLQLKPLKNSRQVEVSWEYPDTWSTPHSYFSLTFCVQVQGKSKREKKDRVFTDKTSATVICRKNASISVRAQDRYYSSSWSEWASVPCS
- method notes: cell-based or functional assay
outcome measure: PHA assay IC50 (M) p70:p40 1:20
Give the value in M but do not write M after it.

PHA assay IC50 (M) p70:p40 1:20 measured on 149-6 (scFv, V domains shown) VH: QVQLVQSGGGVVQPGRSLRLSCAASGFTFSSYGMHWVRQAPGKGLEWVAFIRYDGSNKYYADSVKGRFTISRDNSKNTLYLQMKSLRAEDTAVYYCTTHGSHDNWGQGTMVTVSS VL: SYVLTQPPSVSGTPGQRVTISCSGGRSNIVSNTVKWYQQLPGTAPKLLIYGNDQRPSGVPDRFSGSKSGTSASLAITGVQAEDEADYYCQSYDRGFTGSRVFGTGTKVTVLG = 1e-09
